target: Indoleamine 2,3-dioxygenase 1 (Homo sapiens)
Sequence (P14902 whole entry, the tested form may be a part): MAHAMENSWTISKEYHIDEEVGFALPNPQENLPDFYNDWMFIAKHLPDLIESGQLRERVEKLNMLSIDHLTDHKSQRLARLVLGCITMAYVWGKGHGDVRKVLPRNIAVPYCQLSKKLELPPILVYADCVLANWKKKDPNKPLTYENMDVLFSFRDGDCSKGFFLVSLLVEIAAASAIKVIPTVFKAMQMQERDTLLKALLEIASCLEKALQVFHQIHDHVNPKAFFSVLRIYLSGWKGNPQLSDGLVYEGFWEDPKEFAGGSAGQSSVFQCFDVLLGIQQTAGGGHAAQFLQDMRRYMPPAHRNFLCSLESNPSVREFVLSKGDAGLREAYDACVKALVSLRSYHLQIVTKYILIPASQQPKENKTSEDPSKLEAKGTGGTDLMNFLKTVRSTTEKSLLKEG
test details: Inhibition of recombinant full-length N-terminal His-tagged human IDO1 (1 to 403 residues) expressed in Escherichia coli BL21(DE3) cells
observable: pIC50
The scale used: pIC50 is minus the common logarithm of the concentration in molar units.

Entry under test: O=C(CSc1nnc2scc(-c3ccc(Cl)cc3)n12)c1ccc(Br)cc1 . Its pIC50 was 6.47

Entry under test: OC(c1cnc2scc(-c3ccc(Br)cc3)n12)C1CCCCC1 (stereo unspecified) . Its pIC50 was 5.89

Entry under test: CCCCNC(=S)NCc1cnc2scc(C#CC3CC3)n12 . Its pIC50 was 6.30

Entry under test: CCCS(=O)(=O)NCc1cnc2scc(-c3ccc(Br)cc3)n12 . Its pIC50 was 5.97

Entry under test: O=S(=O)(Cc1cccc(Cl)c1)NCc1cnc2scc(-c3ccc(Br)cc3)n12 . Its pIC50 was 6.13

Entry under test: OC(c1cnc2scc(C#CC3CC3)n12)C1CCCCC1 (stereo unspecified) . Its pIC50 was 5.15

Entry under test: N#Cc1ccc(NC(=S)NCc2cnc3scc(C#CC4CC4)n23)cc1 . Its pIC50 was 7.79

Entry under test: N#Cc1ccc(NC(=O)NCc2cnc3scc(C#Cc4ccc(Cl)s4)n23)cc1 . Its pIC50 was 6.08

Entry under test: N#Cc1ccc(NC(=O)NCc2cnc3scc(C#CC4CC4)n23)cc1 . Its pIC50 was 6.99
